System: Plasmodium falciparum
assay info: GSK_TCMDC: Inhibition of Plasmodium falciparum 3D7 in whole red blood cells, using parasite LDH activity as an index of growth. Test compounds present at 2uM
Assay type: functional
measured property: Inhibition (%)
Dear colleague, please return just the value in %, with no unit written.

Here's what some known entries look like.
O=C(O)C(F)(F)F.c1cc(CN2CCCCC2)cc(-c2cccc(-c3nc4ccccc4[nH]3)c2)c1	100
CCCCCCN1CCC(NCc2ccc(C)cc2)CC1.O=C(O)C(F)(F)F	93
CCCN1CCN(c2cc(S(=O)(=O)Nc3ccc(C(=O)NCc4cccc(C(F)(F)F)c4)cc3)ccc2OC)CC1.O=C(O)C(F)(F)F	92

IN: Item `COc1ccc(S(=O)(=O)N2CCC(NS(=O)(=O)c3ccc(F)cc3)CC2)cc1` has what recorded Inhibition?
OUT: 80

IN: // same read-out, input: `O=C(O)C(F)(F)F.O=C1CCCN1CCCNCc1ccc(-c2ccc(-c3nc4cc(F)ccc4[nH]3)cc2)cc1`
OUT: 100

IN: Also `COc1cc2nc(N3CCC(CNC(=O)c4ccc(NC(=O)c5ccc(Cl)cc5)cc4)CC3)nc(N)c2cc1OC` ?
OUT: 100

IN: Subsequent entry: `CCc1ccc(S(=O)(=O)Nc2cccc(CCN3CCC(N4CCCCC4)CC3)c2)cc1`
OUT: 100

IN: Next compound: `CC(C)NC[C@@H](O)[C@H](Cc1ccccc1)NC(=O)c1cc2c3c(c1)c(C(C)C)cn3CCS(=O)(=O)N2C.O=CO`
OUT: 98

IN: What about this compound? `FC(F)(F)c1ccc(N2CCCN(Cc3cccc(-c4ccccc4CNCc4ccc5c(c4)OCO5)c3)CC2)nc1.O=C(O)C(F)(F)F`
OUT: 87

IN: How about `O=C(Nc1cccc(Cl)c1)N(CCCn1ccnc1)Cc1csc(-c2ccc(CNCc3ccccc3)cc2)n1.O=C(O)C(F)(F)F` ?
OUT: 100

IN: Entry `O=C(NCCN1CCCCC1)c1ccc(CNC(=O)c2ccc(O)c(-c3cccc(C(F)(F)F)c3)c2)cc1` please
OUT: 94

IN: Could you do the same for `CN1CCN(c2ccnc3ccc(NC(=O)Nc4cccc5ccccc45)cc23)CC1` , please?
OUT: 100

Where do the numbers come from? From ChEMBL document CHEMBL1157539.
